system: Mer (Homo sapiens, UniProt Q12866)
Sequence (Q12866 21-999): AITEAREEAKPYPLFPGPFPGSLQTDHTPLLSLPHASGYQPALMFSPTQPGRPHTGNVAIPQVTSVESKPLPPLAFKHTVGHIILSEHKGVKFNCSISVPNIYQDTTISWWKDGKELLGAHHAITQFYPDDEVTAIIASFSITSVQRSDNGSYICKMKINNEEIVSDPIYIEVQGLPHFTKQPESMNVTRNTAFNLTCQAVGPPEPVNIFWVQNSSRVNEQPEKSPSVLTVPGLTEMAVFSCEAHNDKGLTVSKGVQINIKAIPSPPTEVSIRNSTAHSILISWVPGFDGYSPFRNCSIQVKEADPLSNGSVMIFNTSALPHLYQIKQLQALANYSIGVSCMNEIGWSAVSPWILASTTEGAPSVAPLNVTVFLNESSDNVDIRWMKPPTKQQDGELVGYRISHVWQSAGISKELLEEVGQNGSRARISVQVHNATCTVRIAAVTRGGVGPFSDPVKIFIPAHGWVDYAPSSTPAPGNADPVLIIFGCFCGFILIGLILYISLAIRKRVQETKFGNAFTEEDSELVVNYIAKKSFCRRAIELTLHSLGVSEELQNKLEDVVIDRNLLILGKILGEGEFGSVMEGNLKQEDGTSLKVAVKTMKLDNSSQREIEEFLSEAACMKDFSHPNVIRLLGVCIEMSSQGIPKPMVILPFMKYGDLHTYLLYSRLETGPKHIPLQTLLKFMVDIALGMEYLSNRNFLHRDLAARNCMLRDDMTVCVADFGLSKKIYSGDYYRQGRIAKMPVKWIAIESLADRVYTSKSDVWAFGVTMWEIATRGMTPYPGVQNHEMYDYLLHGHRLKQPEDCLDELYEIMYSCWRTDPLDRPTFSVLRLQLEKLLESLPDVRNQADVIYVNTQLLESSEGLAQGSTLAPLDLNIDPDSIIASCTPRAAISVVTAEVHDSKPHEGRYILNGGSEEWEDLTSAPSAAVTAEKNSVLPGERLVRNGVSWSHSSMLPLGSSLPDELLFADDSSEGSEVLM
test.method.notes: Mer autophosphorylation ELISA in transient transfected 293A cells
test.context: Table 3 Cellular Activities; MERTK-transfected 293A cells, phospho-Mer ELISA
pIC50: −log10 of the molar value.
parameter.measured: pIC50

Worked set:
{"columns": ["compound", "parameter.measured", "obs.value"],
 "data": [
  ["COc1cc2nccc(Oc3ccc(NC(=O)c4c(C)ncc(-c5cccnc5)c4O)cc3F)c2nc1OC", "pIC50", "≥ 7.00"],
  ["COc1cc2nccc(Oc3ccc(NC(=O)c4cn(CCF)c(C)c(-c5ccco5)c4=O)cc3F)c2nc1OC", "pIC50", "≥ 7.00"],
  ["COCc1nc(C)c(-c2ccccn2)c(O)c1C(=O)Nc1ccc(Oc2ccnc3cc(OC)c(OC)nc23)c(F)c1", "pIC50", "≥ 7.00"],
  ["CCc1c(C(=O)Nc2ccc(Oc3ccnc4cc(OC)c(OC)nc34)c(F)c2)c(=O)c(-c2ccco2)c(C)n1C", "pIC50", "≥ 7.00"],
  ["COc1cc2nccc(Oc3ccc(NC(=O)c4c(C)ncc(-c5ccoc5)c4O)cc3F)c2nc1OC", "pIC50", "≥ 7.00"],
  ["COCCOc1cc2nccc(Oc3ccc(NC(=O)c4c(C)n(C)c(C)c(-c5coc6ccccc56)c4=O)cc3F)c2nc1OC", "pIC50", "≥ 7.00"]
]}

Ask | What measured pIC50 goes with COc1cc2nccc(Oc3ccc(NC(=O)c4c5n(c(C)c(-c6cc(C)cs6)c4=O)CCOC5)cc3)c2nc1OC ?
Reply | ≥ 7.00

Ask | What measured pIC50 goes with COc1cc2nccc(Oc3ccc(NC(=O)c4c(C)ccn(-c5ccc(F)cn5)c4=O)cc3F)c2nc1OC ?
Reply | ≥ 7.00

Ask | What measured pIC50 goes with COc1cnc2c(Oc3ccc(NC(=O)c4c(C)n(C)c(C)c(-c5ccco5)c4=O)cc3)ccnc2c1 ?
Reply | ≥ 7.00

Ask | What measured pIC50 goes with COc1cc2nccc(Oc3ccc(NC(=O)c4cnc(C)c(-c5ccco5)n4)cc3F)c2nc1OC ?
Reply | ≥ 7.00

Ask | What measured pIC50 goes with COc1cnc2c(Oc3ccc(NC(=O)c4cn(CCF)c(C)c(-c5ccoc5)c4=O)cc3F)ccnc2c1 ?
Reply | ≥ 7.00

Measured values drawn from patent US20230151003A1 for this set.
